Origin of the recorded values: paper PMC2756588

Biological target: T1, Boi2, P39969
T1 sequence (P39969 32-116, looked up): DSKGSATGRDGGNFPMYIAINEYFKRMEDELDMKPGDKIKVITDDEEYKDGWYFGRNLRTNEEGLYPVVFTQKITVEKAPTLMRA
Test: SPOT array
Conditions: median of control spots 1161
Parameter SPOT intensity: see the listing below.

| BINDER | SPOT intensity |
| --- | --- |
| NNFYRPLLRSVLVLL | 2 |
| ERPKRRAPPPVPKKP | 0 |
| ISPPASPPPEFDFSK | 0 |
| GQYRRTIVIPRRFFT | 6 |
| QFDLKMPSKPIHNLK | 2 |
| TYNRTAFQIPGDQSI | 0 |
| NTMKKRPAPPSLPSL | 2 |
